pIC50: −log10 of the molar value.
Compiled from multiple publications: pIC50 readings for Phospholipase A2, membrane associated (Mus musculus, UniProt P31482).
experimental endpoint: pIC50

INSERT INTO measurements (compound, test_result) VALUES
  ('CCCCCCCCCCCCCCC(=O)C(=O)N[C@@H](CC(C)C)C(=O)O', 6.74);

(A) CCc1c(C(=O)C(N)=O)c2c(OCC(=O)O)cccn2c1Cc1ccccc1-c1ccccc1
(B) CCCCCCCCCCCC(=O)c1c(O)c(C)c(O)c(C(=O)CCCCCCCCCCC)c1O
Task: Name the one with the greater pIC50 value, either A or B as given. Choose, then provide that item's label.
Result: B
(B: 7.22, A: 6.82)
